assay: protein stability index of a GFP-peptide fusion (yeast GPS) (PSI 1-4); higher = more stable; sorted into four equal gates, so the index is relative within each strain; settings: san1∆
endpoint_label: protein stability index
Kindly provide the number alone.

{"record_sequence": "DVDPEFYLKYVDIRVGK [RET1]", "protein stability index": 2.4}
{"record_sequence": "SNIELAFSSVEHIIRDV [COB]", "protein stability index": 2.79}
{"record_sequence": "QIFVRGSQIKFIVVPDL [SMD3]", "protein stability index": 2.05}
{"record_sequence": "EARAEAINLMGVKNNLL [RPO31]", "protein stability index": 1.84}
{"record_sequence": "ESEKLVTPEDVMTISSL [RPC82]", "protein stability index": 3.05}
{"record_sequence": "KDRFDIDEKSQFVETIV [RPN2]", "protein stability index": 1.93}

Please report the recorded protein stability index for EQQPEQPQETEEHHEEE [RPT4] .
3.2

For QNAAANAEAKGLDATKL [RPL17A] then?
1.93

For AQTIGRNSKTVREFLEK [PRE6] then?
3.29

For EEASQQQQLQQNSKEKN [MED2] then?
2.92

For RSVRIPWYNNPVSCIIQ [PRP8] then?
2.02

For IIEKITDQILQLLKEDS [RRP45] then?
2.26

For VMTYKGEVLGITRFGLS [RPO31] then?
3.09

For ADCQAELTKTKSSLYSA [YIL149C/MLP2] then?
2.46

For IASEVLIKQVPRLLGPQ [RPL1A] then?
2.27

For DSSSVSEDSAVFKATSS [FAS1] then?
2.98

For DNEGVASKSKKKFNMGK [RPC53] then?
3.15

For SNDTTAFNDSCVNLSLF [SRB8] then?
3.13

For AVDNCAICRNHIMEPCI [HRT1] then?
2.02

For FTCSCNSLTVDGNNANY [RPN14] then?
2.69

For NLLLRELNVEKLNTFNL [SRP72] then?
2.95

For LDERGHEKIEDEDEDND [RPN4] then?
3.48

For KVKLFHGILDDLETSLS [MED2] then?
3.14

For NINEVKKASDLVDTPSN [NUT1] then?
3.23

---

protein stability index: recorded values
experiment: protein stability index of a GFP-peptide fusion (yeast GPS) (PSI 1-4); higher = more stable; sorted into four equal gates, so the index is relative within each strain; details: pdr5∆
Kindly provide the number alone.

{"record_sequence": "NPSVKQGEVGAVFIVPK [SWP82]", "protein stability index": 3.23}

From here, focus on the item given below.
Please report the recorded protein stability index for MKTPSLTVYLEPGHAAD [RPO21] .
2.7

---

test: protein stability index of a GFP-peptide fusion (yeast GPS) (PSI 1-4); higher = more stable; sorted into four equal gates, so the index is relative within each strain; conditions: pdr5∆
endpoint_label: protein stability index
Kindly provide the number alone.

{"record_sequence": "IRAIRKVISEILTKEVQ [RPS1A]", "protein stability index": 1.89}

Please report the recorded protein stability index for LTLTDSQLAQVAAFVNN [BRR2] .
2.18

For RFMRFLADRDEFIQDSA [ECM29] then?
1.23

For SMFSGLDSTGFDSTAFN [MED2] then?
3.17

For AKAVWENIIIVGGTTSI [ARP9] then?
2.12

For LGVIHKGNLLEGKKVMA [RPN2] then?
1.33

For IVVMDCFNLPVVGTETR [RRI1] then?
2.66
